- System: pepsin
- experimental_protocol: Proteolytic stability of compound assessed as pepsin (unknown origin)-mediated drug degradation at 40 mM by measuring half life measured after 24 hrs by RP-HPLC analysis
- Assay type: ADME
- experimental_setup: human
Documented half-life at 40000 µM across a set of molecules

smiles_record	half-life at 40000 µM
CCCCCCCCCCCCCCCC(=O)N[C@H](C(=O)N[C@H](Cc1ccc(O)cc1)C(=O)N[C@@H](CCC(N)=O)C(=O)N[C@@H](CCC(=O)O)C(=O)N[C@@H](CC(C)C)C(=O)N[C@@H](CCCNC(=N)N)C(=O)N[C@@H](CCCNC(=N)N)C(=O)N[C@H](C(=O)NCC(=O)N[C@@H](CC(=O)O)C(=O)N[C@@H](CCC(=O)O)C(=O)N[C@@H](Cc1ccccc1)C(=O)O)[C@@H](C)CC)[C@@H](C)CC	1.78 h
CCCCCCCCCCCCCCCC(=O)N[C@H](C(=O)N[C@@H](C(=O)N[C@@H](CCC(N)=O)C(=O)N[C@@H](CCC(=O)O)C(=O)N[C@@H](CC(C)C)C(=O)N[C@@H](CCCNC(=N)N)C(=O)N[C@@H](CCCNC(=N)N)C(=O)N[C@H](C(=O)NCC(=O)N[C@@H](CC(=O)O)C(=O)N[C@@H](CCC(=O)O)C(=O)N[C@@H](Cc1ccccc1)C(=O)O)[C@@H](C)CC)C(C)C)[C@@H](C)CC	1.17 h
CCCCCCCCCCCCCCCC(=O)N[C@H](C(=O)N[C@@H](C)C(=O)N[C@H](CCC(N)=O)C(=O)N[C@@H](CCC(=O)O)C(=O)N[C@@H](CC(C)C)C(=O)N[C@@H](CCCNC(=N)N)C(=O)N[C@@H](CCCNC(=N)N)C(=O)N[C@H](C(=O)NCC(=O)N[C@@H](CC(=O)O)C(=O)N[C@@H](CCC(=O)O)C(=O)N[C@@H](Cc1ccccc1)C(=O)O)[C@@H](C)CC)[C@@H](C)CC	1.13 h

---

- System: chymotrypsin
- experimental_protocol: Proteolytic stability of compound assessed as chymotrypsin (unknown origin)-mediated drug degradation at 0.6 mM by measuring half life measured after 24 hrs by RP-HPLC analysis
- Format: ADME
- experimental_setup: human
Documented half-life at 600 µM across a set of molecules

smiles_record	half-life at 600 µM
CCCCCCCCCCCCCCCC(=O)N[C@H](C(=O)N[C@@H](C)C(=O)N[C@@H](CCC(N)=O)C(=O)N[C@@H](CCC(=O)O)C(=O)N[C@@H](CC(C)C)C(=O)N[C@@H](CCCNC(=N)N)C(=O)N[C@@H](CCCNC(=N)N)C(=O)N[C@H](C(=O)NCC(=O)N[C@@H](CC(=O)O)C(=O)N[C@@H](CCC(=O)O)C(=O)N[C@@H](Cc1ccccc1)C(=O)O)[C@@H](C)CC)[C@@H](C)CC	0.556 h
CCCCCCCCCCCCCCCC(=O)N[C@H](C(=O)N[C@H](C)C(=O)N[C@@H](CCC(N)=O)C(=O)N[C@@H](CCC(=O)O)C(=O)N[C@@H](CC(C)C)C(=O)N[C@@H](CCCNC(=N)N)C(=O)N[C@@H](CCCNC(=N)N)C(=O)N[C@H](C(=O)NCC(=O)N[C@@H](CC(=O)O)C(=O)N[C@@H](CCC(=O)O)C(=O)N[C@@H](Cc1ccccc1)C(=O)O)[C@@H](C)CC)[C@@H](C)CC	1.72 h

---

- Test system: chymotrypsin
- experimental_protocol: Proteolytic stability of compound assessed as chymotrypsin (unknown origin)-mediated drug degradation at 0.6 mM by measuring half life measured after 24 hrs by RP-HPLC analysis
- Format: ADME
- experimental_setup: human
Values of half-life at 600 µM strictly less than 40 min map to t, and values of at least 40 min map to f.

smiles_record	class_label
CCCCCCCCCCCCCCCC(=O)N[C@H](C(=O)N[C@@H](C(=O)N[C@@H](CCC(N)=O)C(=O)N[C@@H](CCC(=O)O)C(=O)N[C@@H](CC(C)C)C(=O)N[C@@H](CCCNC(=N)N)C(=O)N[C@@H](CCCNC(=N)N)C(=O)N[C@H](C(=O)NCC(=O)N[C@@H](CC(=O)O)C(=O)N[C@@H](CCC(=O)O)C(=O)N[C@@H](Cc1ccccc1)C(=O)O)[C@@H](C)CC)C(C)C)[C@@H](C)CC	t
CCCCCCCCCCCCCCCC(=O)N[C@H](C(=O)N[C@H](Cc1cnc[nH]1)C(=O)N[C@@H](CCC(N)=O)C(=O)N[C@@H](CCC(=O)O)C(=O)N[C@@H](CC(C)C)C(=O)N[C@@H](CCCNC(=N)N)C(=O)N[C@@H](CCCNC(=N)N)C(=O)N[C@H](C(=O)NCC(=O)N[C@@H](CC(=O)O)C(=O)N[C@@H](CCC(=O)O)C(=O)N[C@@H](Cc1ccccc1)C(=O)O)[C@@H](C)CC)[C@@H](C)CC	f
CCCCCCCCCCCCCCCC(=O)N[C@H](C(=O)N[C@@H](C)C(=O)N[C@H](CCC(N)=O)C(=O)N[C@@H](CCC(=O)O)C(=O)N[C@@H](CC(C)C)C(=O)N[C@@H](CCCNC(=N)N)C(=O)N[C@@H](CCCNC(=N)N)C(=O)N[C@H](C(=O)NCC(=O)N[C@@H](CC(=O)O)C(=O)N[C@@H](CCC(=O)O)C(=O)N[C@@H](Cc1ccccc1)C(=O)O)[C@@H](C)CC)[C@@H](C)CC	f
CCCCCCCCCCCCCCCC(=O)N[C@H](C(=O)N[C@H](Cc1ccc(O)cc1)C(=O)N[C@@H](CCC(N)=O)C(=O)N[C@@H](CCC(=O)O)C(=O)N[C@@H](CC(C)C)C(=O)N[C@@H](CCCNC(=N)N)C(=O)N[C@@H](CCCNC(=N)N)C(=O)N[C@H](C(=O)NCC(=O)N[C@@H](CC(=O)O)C(=O)N[C@@H](CCC(=O)O)C(=O)N[C@@H](Cc1ccccc1)C(=O)O)[C@@H](C)CC)[C@@H](C)CC	t
CCCCCCCCCCCCCCCC(=O)N[C@H](C(=O)N[C@@H](C)C(=O)N[C@@H](CCC(N)=O)C(=O)N[C@@H](CCC(=O)O)C(=O)N[C@@H](CC(C)C)C(=O)N[C@@H](CCCNC(=N)N)C(=O)N[C@@H](CCCNC(=N)N)C(=O)N[C@@H](C(=O)NCC(=O)N[C@@H](CC(=O)O)C(=O)N[C@@H](CCC(=O)O)C(=O)N[C@@H](Cc1ccccc1)C(=O)O)[C@@H](C)CC)[C@@H](C)CC	f

---

- target_of_assay: Tyrosine-protein phosphatase non-receptor type 1 (Homo sapiens) (UniProt P18031)
- Sequence (P18031 whole entry): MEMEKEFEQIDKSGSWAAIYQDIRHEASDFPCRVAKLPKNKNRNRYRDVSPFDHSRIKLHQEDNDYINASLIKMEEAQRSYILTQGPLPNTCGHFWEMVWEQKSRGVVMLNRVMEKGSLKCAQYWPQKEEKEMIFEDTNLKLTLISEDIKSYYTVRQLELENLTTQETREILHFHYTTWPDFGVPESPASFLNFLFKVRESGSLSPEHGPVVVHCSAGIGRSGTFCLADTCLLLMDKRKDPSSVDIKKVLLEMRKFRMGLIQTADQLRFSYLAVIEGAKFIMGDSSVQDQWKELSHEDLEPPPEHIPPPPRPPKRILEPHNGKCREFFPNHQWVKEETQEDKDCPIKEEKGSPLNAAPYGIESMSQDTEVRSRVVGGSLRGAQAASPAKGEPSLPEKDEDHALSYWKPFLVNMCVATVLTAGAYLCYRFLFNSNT
- experimental_protocol: Binding affinity to PTPN1 (unknown origin) assessed as association rate constant (Kon) by Bio-Layer Interferometric analysis
readout_label: K

smiles_record	readout_label	val
CCCCCCCCCCCCCCCC(=O)N[C@H](C(=O)N[C@H](C)C(=O)N[C@@H](CCC(N)=O)C(=O)N[C@@H](CCC(=O)O)C(=O)N[C@@H](CC(C)C)C(=O)N[C@@H](CCCNC(=N)N)C(=O)N[C@@H](CCCNC(=N)N)C(=O)N[C@H](C(=O)NCC(=O)N[C@@H](CC(=O)O)C(=O)N[C@@H](CCC(=O)O)C(=O)N[C@@H](Cc1ccccc1)C(=O)O)[C@@H](C)CC)[C@@H](C)CC	K	3.27 10^2/Ms
CCCCCCCCCCCCCCCC(=O)N[C@H](C(=O)N[C@@H](C)C(=O)N[C@@H](CCC(N)=O)C(=O)N[C@@H](CCC(=O)O)C(=O)N[C@@H](CC(C)C)C(=O)N[C@@H](CCCNC(=N)N)C(=O)N[C@@H](CCCNC(=N)N)C(=O)N[C@@H](C(=O)NCC(=O)N[C@@H](CC(=O)O)C(=O)N[C@@H](CCC(=O)O)C(=O)N[C@@H](Cc1ccccc1)C(=O)O)[C@@H](C)CC)[C@@H](C)CC	K	1.65 10^3/Ms

---

- target_of_assay: Tyrosine-protein phosphatase non-receptor type 1 (Homo sapiens)
- experimental_protocol: Binding affinity to PTPN1 (unknown origin) assessed as dissociation rate constant (Koff) by Bio-Layer Interferometric analysis
Documented K across a set of molecules

smiles_record	target_of_assay	K
CCCCCCCCCCCCCCCC(=O)N[C@H](C(=O)N[C@H](Cc1ccc(O)cc1)C(=O)N[C@@H](CCC(N)=O)C(=O)N[C@@H](CCC(=O)O)C(=O)N[C@@H](CC(C)C)C(=O)N[C@@H](CCCNC(=N)N)C(=O)N[C@@H](CCCNC(=N)N)C(=O)N[C@H](C(=O)NCC(=O)N[C@@H](CC(=O)O)C(=O)N[C@@H](CCC(=O)O)C(=O)N[C@@H](Cc1ccccc1)C(=O)O)[C@@H](C)CC)[C@@H](C)CC	Tyrosine-protein phosphatase non-receptor type 1 (Homo sapiens)	7.35 10^-5/s
CCCCCCCCCCCCCCCC(=O)N[C@H](C(=O)N[C@@H](C(=O)N[C@@H](CCC(N)=O)C(=O)N[C@@H](CCC(=O)O)C(=O)N[C@@H](CC(C)C)C(=O)N[C@@H](CCCNC(=N)N)C(=O)N[C@@H](CCCNC(=N)N)C(=O)N[C@H](C(=O)NCC(=O)N[C@@H](CC(=O)O)C(=O)N[C@@H](CCC(=O)O)C(=O)N[C@@H](Cc1ccccc1)C(=O)O)[C@@H](C)CC)C(C)C)[C@@H](C)CC	Tyrosine-protein phosphatase non-receptor type 1 (Homo sapiens)	5.85 10^-3/s
CCCCCCCCCCCCCCCC(=O)N[C@H](C(=O)N[C@@H](C)C(=O)N[C@@H](CCC(N)=O)C(=O)N[C@@H](CCC(=O)O)C(=O)N[C@@H](CC(C)C)C(=O)N[C@@H](CCCNC(=N)N)C(=O)N[C@@H](CCCNC(=N)N)C(=O)N[C@H](C(=O)NCC(=O)N[C@@H](CC(=O)O)C(=O)N[C@@H](CCC(=O)O)C(=O)N[C@@H](Cc1ccccc1)C(=O)O)[C@@H](C)CC)[C@@H](C)CC	Tyrosine-protein phosphatase non-receptor type 1 (Homo sapiens)	6.65 10^-3/s
CCCCCCCCCCCCCCCC(=O)N[C@H](C(=O)N[C@H](C)C(=O)N[C@@H](CCC(N)=O)C(=O)N[C@@H](CCC(=O)O)C(=O)N[C@@H](CC(C)C)C(=O)N[C@@H](CCCNC(=N)N)C(=O)N[C@@H](CCCNC(=N)N)C(=O)N[C@H](C(=O)NCC(=O)N[C@@H](CC(=O)O)C(=O)N[C@@H](CCC(=O)O)C(=O)N[C@@H](Cc1ccccc1)C(=O)O)[C@@H](C)CC)[C@@H](C)CC	Tyrosine-protein phosphatase non-receptor type 1 (Homo sapiens)	1.46 10^-4/s
